- System: A549
- TEST_SUMMARY: In vitro anti Neoplastic Activity against Human non small cell lung carcinoma A549 Cell lines;Value ranges from (3-10).
- Assay type: functional, cell-based
pIC50: −log10 of the molar value.
QUANTITY_MEASURED: pIC50

INSERT INTO assay_data (compound, experimental_result) VALUES
  ('CC(=O)OC1C(CN(C)C/C=C\CN)OC(n2cnc3c(N)ncnc32)C1OC(C)=O (stereo unspecified)', 5.00);

###

- System: Trypanosoma brucei rhodesiense
- TEST_SUMMARY: In vitro antitrypanosomal activity against Trypanosomal 243 As 10e-3 (KETRI)strain
- Type: functional, organism-based
pIC50: −log10 of the molar value.
QUANTITY_MEASURED: pIC50

INSERT INTO assay_data (compound, experimental_result) VALUES
  ('CN(C/C=C\CN)C[C@H]1O[C@@H](n2cnc3c(N)ncnc32)[C@H](O)[C@@H]1O', 7.00),
  ('CN(C/C=C\CN)CC1OC(n2cnc3c(N)ncnc32)CC1O (configuration not stated)', 4.52);
